Each recorded value in this set is attributed to patent US12295959B2.

Listing: EC50 of selected compounds
# targetEntity: 5-HT2C edited (accession number AAF35842.1) (Homo sapiens, UniProt P28335, I156V/I160V/N158S)
# procedureDetails: cell-based
# Sequence (P28335 whole entry I156V/N158S/I160V, looked up): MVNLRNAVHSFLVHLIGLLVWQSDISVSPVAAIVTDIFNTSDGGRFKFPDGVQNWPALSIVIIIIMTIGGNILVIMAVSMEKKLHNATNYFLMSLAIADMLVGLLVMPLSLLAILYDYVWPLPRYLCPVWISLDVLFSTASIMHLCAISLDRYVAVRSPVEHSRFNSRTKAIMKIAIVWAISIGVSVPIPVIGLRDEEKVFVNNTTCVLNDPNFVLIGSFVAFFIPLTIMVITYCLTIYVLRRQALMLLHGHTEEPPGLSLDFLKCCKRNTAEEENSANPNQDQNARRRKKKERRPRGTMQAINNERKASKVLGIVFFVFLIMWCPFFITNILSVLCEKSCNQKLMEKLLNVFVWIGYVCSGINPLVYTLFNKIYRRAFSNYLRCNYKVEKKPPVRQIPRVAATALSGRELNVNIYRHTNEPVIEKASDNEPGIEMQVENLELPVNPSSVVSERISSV

Fc1ccc(Oc2ccc3c4c([nH]c3c2)CCNCC4)cc1: 101 to 1000 nM
CN1CCc2[nH]c3c(OCc4ccccc4)cccc3c2CC1: 101 to 1000 nM
CN1CCc2c(n(C)c3cc(OCc4ccc(F)cc4)ccc23)CC1: 1000 to 10000 nM
CN1CCc2c(n(C)c3cccc(Oc4ccc(F)cc4)c23)CC1: 101 to 1000 nM
CN1CCc2c(n(C)c3cc(OCc4ccccc4)ccc23)CC1: 1000 to 10000 nM

Req: State its EC50 for this compound: c1ccc(Oc2ccc3c4c([nH]c3c2)CCNCC4)cc1
Resp: 101 to 1000 nM

Req: Item c1ccc(COc2ccc3c4c([nH]c3c2)CCNCC4)cc1 : provide EC50
Resp: 101 to 1000 nM

Req: Find the measured EC50 of c1ccc(COc2ccc3[nH]c4c(c3c2)CCNCC4)cc1 and report it.
Resp: 10 to 100 nM

Req: Find the measured EC50 of c1ccc(Oc2cccc3[nH]c4c(c23)CCNCC4)cc1 and report it.
Resp: < 10 nM

Req: Input Fc1ccc(COc2ccc3c4c([nH]c3c2)CCNCC4)cc1 , output reported EC50.
Resp: 101 to 1000 nM

---

Attribute: pIC50
# targetEntity: 5-HT2C edited (accession number AAF35842.1) (Homo sapiens, UniProt P28335, I156V/I160V/N158S)
# procedureDetails: biochemical
# Sequence (P28335 33-458 I156V/N158S/I160V limits assumed): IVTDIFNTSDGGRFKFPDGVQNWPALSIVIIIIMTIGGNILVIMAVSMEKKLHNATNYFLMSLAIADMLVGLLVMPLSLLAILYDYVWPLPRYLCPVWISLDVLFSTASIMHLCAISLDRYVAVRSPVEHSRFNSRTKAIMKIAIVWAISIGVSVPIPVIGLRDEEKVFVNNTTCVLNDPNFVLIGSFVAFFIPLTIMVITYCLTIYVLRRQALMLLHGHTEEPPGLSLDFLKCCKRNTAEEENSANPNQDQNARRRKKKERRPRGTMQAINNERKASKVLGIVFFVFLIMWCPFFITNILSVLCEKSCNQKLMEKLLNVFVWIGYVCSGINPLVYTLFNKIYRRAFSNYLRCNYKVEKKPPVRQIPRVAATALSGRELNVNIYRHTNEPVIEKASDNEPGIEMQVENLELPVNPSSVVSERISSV
pIC50: −log10 of the molar value.

In the examples that follow, each entry is paired with its recorded pIC50.
CN1CCc2[nH]c3cc(OCc4ccc(F)cc4)ccc3c2CC1 [Compound 8]: 6.00 to 7.00
CN1CCc2[nH]c3cc(OCc4ccccc4)ccc3c2CC1 [Compound 1]: 6.00 to 7.00
Cn1c2c(c3c(OCc4ccccc4)cccc31)CCNCC2 [Compound 19]: 7.00 to 8.00
Cn1c2c(c3ccc(OCc4ccc(F)cc4)cc31)CCNCC2 [Compound 9]: 6.00 to 7.00
Fc1ccc(Oc2cccc3[nH]c4c(c23)CCNCC4)cc1 [Compound 21]: > 8.00
CN1CCc2c(n(C)c3cc(OCc4ccccc4)ccc23)CC1 [Compound 6]: 6.00 to 7.00
Fc1ccc(COc2ccc3c4c([nH]c3c2)CCNCC4)cc1 [Compound 7]: 6.00 to 7.00
Cn1c2c(c3c(Oc4ccc(F)cc4)cccc31)CCNCC2 [Compound 23]: 7.00 to 8.00
Fc1ccc(Oc2ccc3c4c([nH]c3c2)CCNCC4)cc1 [Compound 15]: 6.00 to 7.00

Req: Retrieve pIC50 measured for c1ccc(COc2ccc3[nH]c4c(c3c2)CCNCC4)cc1 [Compound 25] and print it.
Resp: 7.00 to 8.00

---

# targetEntity: 5-HT2C edited (accession number AAF35842.1) (Homo sapiens, UniProt P28335, I156V/I160V/N158S)
# procedureDetails: cell-based
Each entry below carries its recorded EC50.

Answered examples (3):
Cn1c2c(c3ccc(Oc4ccccc4)cc31)CCNCC2: 1000 to 10000 nM
c1ccc(COc2cccc3[nH]c4c(c23)CCNCC4)cc1: < 10 nM
c1ccc(COc2cccc3c4c([nH]c23)CCNCC4)cc1: 101 to 1000 nM

Req: Quote EC50 reported for CN1CCc2c(n(C)c3cc(Oc4ccc(F)cc4)ccc23)CC1 please.
Resp: 101 to 1000 nM

Req: Input Cn1c2c(c3c(Oc4ccc(F)cc4)cccc31)CCNCC2 , output reported EC50.
Resp: 101 to 1000 nM

---

# targetEntity: 5-HT2C edited (accession number AAF35842.1) (Homo sapiens, UniProt P28335, I156V/I160V/N158S)
# procedureDetails: biochemical
pIC50: −log10 of the molar value.
readoutKind: pIC50

Cn1c2c(c3ccc(OCc4ccccc4)cc31)CCNCC2: 6.00 to 7.00
CN1CCc2c(n(C)c3cc(Oc4ccc(F)cc4)ccc23)CC1: 6.00 to 7.00
c1ccc(COc2cccc3[nH]c4c(c23)CCNCC4)cc1: > 8.00
c1ccc(Oc2ccc3c4c([nH]c3c2)CCNCC4)cc1: 6.00 to 7.00
c1ccc(COc2ccc3c4c([nH]c3c2)CCNCC4)cc1: 6.00 to 7.00

Req: Tell me pIC50 reported for c1ccc(Oc2cccc3[nH]c4c(c23)CCNCC4)cc1
Resp: > 8.00

Req: Give the reported value of pIC50 for this record: CN1CCc2[nH]c3ccc(OCc4ccccc4)cc3c2CC1
Resp: 6.00 to 7.00

Req: Give a short answer stating reported pIC50 for c1ccc(COc2cccc3c4c([nH]c23)CCNCC4)cc1 .
Resp: 6.00 to 7.00

Req: // Input: Cn1c2c(c3ccc(Oc4ccc(F)cc4)cc31)CCNCC2 . Output its pIC50 only.
Resp: 7.00 to 8.00

---

Listing of entries alongside the reported pIC50.
# targetEntity: 5-HT2C (Homo sapiens, UniProt P28335, I156V/I160V/N158S)
# Sequence (P28335 33-458 I156V/N158S/I160V limits assumed): as above
# procedureDetails: cell-based
pIC50: −log10 of the molar value.

Here's what some known entries look like.
CN1CCc2c(n(C)c3cc(Oc4ccc(F)cc4)ccc23)CC1: 5.00 to 6.00
CN1CCc2[nH]c3cc(Oc4ccccc4)ccc3c2CC1: < 5.00
c1ccc(Oc2ccc3c4c([nH]c3c2)CCNCC4)cc1: < 5.00
CN1CCc2[nH]c3cc(Oc4ccc(F)cc4)ccc3c2CC1: < 5.00
c1ccc(COc2ccc3[nH]c4c(c3c2)CCNCC4)cc1: < 5.00
CN1CCc2c(n(C)c3cc(OCc4ccc(F)cc4)ccc23)CC1: 5.00 to 6.00
CN1CCc2[nH]c3cc(OCc4ccc(F)cc4)ccc3c2CC1: 5.00 to 6.00
CN1CCc2[nH]c3cccc(OCc4ccccc4)c3c2CC1: 7.00 to 8.00

Req: Please list pIC50 recorded for the compound CN1CCc2[nH]c3c(Br)ccc(OCc4ccccc4)c3c2CC1
Resp: 7.00 to 8.00

Req: Return pIC50 for the following compound: CN1CCc2c(n(C)c3cccc(Oc4ccc(F)cc4)c23)CC1
Resp: 7.00 to 8.00

---

# targetEntity: 5-HT2C edited (accession number AAF35842.1) (Homo sapiens, UniProt P28335, I156V/I160V/N158S)
# procedureDetails: biochemical
pIC50: −log10 of the molar value.
readoutKind: pIC50

Below: 4 molecules and their reported pIC50.
Cn1c2c(c3ccc(Oc4ccccc4)cc31)CCNCC2: 6.00 to 7.00
CN1CCc2[nH]c3c(Br)ccc(OCc4ccccc4)c3c2CC1: > 8.00
CN1CCc2c(n(C)c3cccc(Oc4ccc(F)cc4)c23)CC1: 7.00 to 8.00
CN1CCc2[nH]c3cc(Oc4ccc(F)cc4)ccc3c2CC1: 6.00 to 7.00

Now let's try a different one.
Req: Fill in reported pIC50 for this entry: CN1CCc2[nH]c3cc(Oc4ccccc4)ccc3c2CC1
Resp: 6.00 to 7.00

---

# targetEntity: 5-HT2C edited (accession number AAF35842.1) (Homo sapiens, UniProt P28335, I156V/I160V/N158S)
# procedureDetails: cell-based
pEC50: −log10 of the molar value.
Measured pEC50 by item

Before answering, review these 3 worked examples.
CN1CCc2[nH]c3cc(OCc4ccccc4)ccc3c2CC1: 5.00 to 6.00
Cn1c2c(c3ccc(OCc4ccccc4)cc31)CCNCC2: 5.00 to 6.00
CN1CCc2[nH]c3cc(Oc4ccc(F)cc4)ccc3c2CC1: 5.00 to 6.00

Req: Determine its reported pEC50: CN1CCc2[nH]c3ccc(OCc4ccccc4)cc3c2CC1
Resp: 6.00 to 7.00

Req: Supply pEC50 value. Item: Cn1c2c(c3ccc(OCc4ccc(F)cc4)cc31)CCNCC2
Resp: 5.00 to 6.00

Req: Please report the measured pEC50 for CN1CCc2[nH]c3cc(OCc4ccc(F)cc4)ccc3c2CC1
Resp: 5.00 to 6.00

Req: Please report pEC50 for the following compound: CN1CCc2[nH]c3cc(Oc4ccccc4)ccc3c2CC1
Resp: 5.00 to 6.00

Req: Supply pEC50 value. Item: Cn1c2c(c3ccc(Oc4ccc(F)cc4)cc31)CCNCC2
Resp: 5.00 to 6.00

Req: Give the reported value of pEC50 for this record: CN1CCc2[nH]c3c(Br)ccc(OCc4ccccc4)c3c2CC1
Resp: < 5.00

---

# targetEntity: 5-HT2C edited (accession number AAF35842.1) (Homo sapiens, UniProt P28335, I156V/I160V/N158S)
# procedureDetails: cell-based
readoutKind: EC50

Below: 4 compounds and their reported EC50.
Cn1c2c(c3c(OCc4ccccc4)cccc31)CCNCC2: 10 to 100 nM
Fc1ccc(Oc2cccc3[nH]c4c(c23)CCNCC4)cc1: < 10 nM
CN1CCc2[nH]c3cccc(OCc4ccccc4)c3c2CC1: 10 to 100 nM
CN1CCc2c(n(C)c3cc(Oc4ccccc4)ccc23)CC1: 101 to 1000 nM

Then this compound:
Req: Supply reported EC50 belonging to this compound: CN1CCc2[nH]c3cccc(Oc4ccc(F)cc4)c3c2CC1
Resp: < 10 nM
